Assay system: Protein phosphatase 1D (Homo sapiens, UniProt O15297)
Sequence (O15297 whole entry, the tested form may be a part): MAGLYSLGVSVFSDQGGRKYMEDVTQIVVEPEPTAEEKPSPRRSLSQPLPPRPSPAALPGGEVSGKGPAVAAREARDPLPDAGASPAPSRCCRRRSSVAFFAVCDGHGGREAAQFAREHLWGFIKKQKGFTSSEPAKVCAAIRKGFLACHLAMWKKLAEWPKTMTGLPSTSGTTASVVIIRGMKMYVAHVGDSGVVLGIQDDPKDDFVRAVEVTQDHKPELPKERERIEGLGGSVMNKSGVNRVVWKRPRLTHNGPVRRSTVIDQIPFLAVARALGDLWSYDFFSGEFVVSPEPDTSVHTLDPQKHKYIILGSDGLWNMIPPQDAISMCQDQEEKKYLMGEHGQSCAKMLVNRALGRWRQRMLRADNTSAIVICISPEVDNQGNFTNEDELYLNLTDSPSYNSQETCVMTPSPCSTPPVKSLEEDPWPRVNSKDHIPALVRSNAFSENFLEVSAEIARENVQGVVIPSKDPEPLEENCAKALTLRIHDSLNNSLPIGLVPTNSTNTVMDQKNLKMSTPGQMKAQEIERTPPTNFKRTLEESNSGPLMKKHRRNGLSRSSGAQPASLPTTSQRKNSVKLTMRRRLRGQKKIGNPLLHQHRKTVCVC
Protocol notes: Inhibition of recombinant human Wip1 (1 to 420 residues) using human ATM phosphopeptide (AFEEG-pS-QSTTIGY) as substrate incubated for 7 mins by Bio-mol green assay
# IC50 per entry

Query smiles	Assay system	IC50, µM
O=C(Nc1cccc(OP(=O)(O)O)c1)c1ccc(NCc2ccc(F)cc2)c(CC2CCCCC2)c1	Protein phosphatase 1D (Homo sapiens, UniProt O15297)	28.1
COC(=O)c1ccc(NCc2cccc(C(=O)O)c2)c(CC2CCCCC2)c1	Protein phosphatase 1D (Homo sapiens, UniProt O15297)	54.1
O=C(Nc1ccc2c(c1)OCO2)c1cccc(CNc2ccc(C(=O)Nc3cccc(OP(=O)(O)O)c3)cc2CC2CCCCC2)c1	Protein phosphatase 1D (Homo sapiens, UniProt O15297)	35.2
O=C(NCCc1ccc(OP(=O)(O)O)cc1)c1ccc(NC(=O)c2ccc(F)cc2)c(CC2CCCCC2)c1	Protein phosphatase 1D (Homo sapiens, UniProt O15297)	36
O=C(Nc1cccc(Cl)c1)c1cccc(C(=O)Nc2ccc(C(=O)Nc3cccc(OP(=O)(O)O)c3)cc2CC2CCCCC2)c1	Protein phosphatase 1D (Homo sapiens, UniProt O15297)	7.3
O=C(Nc1cccc(OP(=O)(O)O)c1)c1ccc(NCc2ccc3ccccc3c2)c(CC2CCCCC2)c1	Protein phosphatase 1D (Homo sapiens, UniProt O15297)	274
COc1ccc(CNc2ccc(C(=O)Nc3cccc(OP(=O)(O)O)c3)cc2CC2CCCCC2)cc1	Protein phosphatase 1D (Homo sapiens, UniProt O15297)	37
COC(=O)c1ccc(NCc2cccc(C(=O)O)c2)c(CCC2CCCCC2)c1	Protein phosphatase 1D (Homo sapiens, UniProt O15297)	48.4
O=C(Nc1cccc(OP(=O)(O)O)c1)c1ccc(NCc2ccc(F)cc2)cc1	Protein phosphatase 1D (Homo sapiens, UniProt O15297)	683
COc1cc(OC)cc(-c2ccc(CNc3ccc(C(=O)Nc4cccc(OP(=O)(O)O)c4)cc3CC3CCCCC3)cc2)c1	Protein phosphatase 1D (Homo sapiens, UniProt O15297)	18
O=C(O)c1cccc(CNc2ccccc2CC2CCCCC2)c1	Protein phosphatase 1D (Homo sapiens, UniProt O15297)	74.8
O=C(Nc1cccc(OP(=O)(O)O)c1)c1ccc(NC(=O)c2cccc(CNc3cccc(Cl)c3)c2)c(CC2CCCCC2)c1	Protein phosphatase 1D (Homo sapiens, UniProt O15297)	7.2
O=C(Nc1cccc(Cl)c1)c1cccc(CNc2ccc(C(=O)Nc3cccc(OP(=O)(O)O)c3)cc2CC2CCCCC2)c1	Protein phosphatase 1D (Homo sapiens, UniProt O15297)	3.8
Nc1ccc(C(=O)Nc2cccc(OP(=O)(O)O)c2)cc1CC1CCCCC1	Protein phosphatase 1D (Homo sapiens, UniProt O15297)	330
O=C(Nc1cccc(Cl)c1)c1cccc(CNc2ccc(C(=O)Nc3cccc(O)c3)cc2CCC2CCCCC2)c1	Protein phosphatase 1D (Homo sapiens, UniProt O15297)	1600
O=C(Nc1cccc(OP(=O)(O)O)c1)c1ccc(NCc2cccnc2)c(CC2CCCCC2)c1	Protein phosphatase 1D (Homo sapiens, UniProt O15297)	105
COc1cccc(CNc2ccc(C(=O)Nc3cccc(OP(=O)(O)O)c3)cc2CC2CCCCC2)c1	Protein phosphatase 1D (Homo sapiens, UniProt O15297)	139
O=C(Nc1cccc(OP(=O)(O)O)c1)c1ccc(NCc2ccc(-c3cccc(F)c3)cc2)c(CC2CCCCC2)c1	Protein phosphatase 1D (Homo sapiens, UniProt O15297)	30
O=C(Nc1cccc(F)c1)c1cccc(CNc2ccc(C(=O)Nc3cccc(OP(=O)(O)O)c3)cc2CC2CCCCC2)c1	Protein phosphatase 1D (Homo sapiens, UniProt O15297)	20.8
O=C(Nc1cccc(OP(=O)(O)O)c1)c1ccc(NCc2cccc(F)c2)c(CC2CCCCC2)c1	Protein phosphatase 1D (Homo sapiens, UniProt O15297)	28.5
O=C(Nc1cccc(OP(=O)(O)O)c1)c1ccc(NCc2ccc(F)cc2)c(Cc2ccccc2)c1	Protein phosphatase 1D (Homo sapiens, UniProt O15297)	63
O=C(Nc1cccc(Cl)c1)c1ccc(CNc2ccc(C(=O)Nc3cccc(OP(=O)(O)O)c3)cc2CC2CCCCC2)cc1	Protein phosphatase 1D (Homo sapiens, UniProt O15297)	11.1
